- MEASUREMENT TARGET: Platelet-derived growth factor receptor (Mus musculus, UniProt P05622+P26618)
- ASSAY REMARKS: Inhibition of PDGF receptor autophosphorylation in mouse fibroblasts
OBSERVABLE: IC50

Record excerpt, results attached:
• Cn1c(SSc2c(C(=O)Nc3ccccc3)c3ccccc3n2C)c(C(=O)Nc2ccccc2)c2ccccc21 = > 100 µM
• COc1cccc2c(C(=O)Nc3ccccc3)c(SSc3c(C(=O)Nc4ccccc4)c4cccc(OC)c4n3C)n(C)c12 = > 100 µM
• CN1C(=S)C(C(=O)Nc2ccccc2)c2ccccc21 (stereo not given) = 17 µM
• COc1ccc2c(C(=O)Nc3ccccc3)c(SSc3c(C(=O)Nc4ccccc4)c4ccc(OC)cc4n3C)n(C)c2c1 = > 100 µM

# context switch: different compound, same IC50
Prompt: For `Cn1c(SSc2c(C(=O)Nc3ccccc3)c3cccnc3n2C)c(C(=O)Nc2ccccc2)c2cccnc21` , what is its reported IC50?
Response: > 25 µM

----------
Read-out record for Epidermal growth factor receptor (Homo sapiens, UniProt P00533): IC50

* Cc1cccc2c(C(=O)Nc3ccccc3)c(SSc3c(C(=O)Nc4ccccc4)c4cccc(C)c4n3C)n(C)c12 | > 100 µM
* Cc1ccc2c(c1)c(C(=O)Nc1ccccc1)c(SSc1c(C(=O)Nc3ccccc3)c3cc(C)ccc3n1C)n2C | > 100 µM
* Cn1c(SSc2c(C(=O)Nc3ccccc3)c3cc([N+](=O)[O-])ccc3n2C)c(C(=O)Nc2ccccc2)c2cc([N+](=O)[O-])ccc21 | 5 µM
* Cc1cccc2c1c(C(=O)Nc1ccccc1)c(SSc1c(C(=O)Nc3ccccc3)c3c(C)cccc3n1C)n2C | > 100 µM
* Cn1c(SSc2c(C(=O)Nc3ccccc3)c3cccc(O)c3n2C)c(C(=O)Nc2ccccc2)c2cccc(O)c21 | 100 µM
* Cn1c(SSc2c(C(=O)Nc3ccccc3)c3ccc(Cl)cc3n2C)c(C(=O)Nc2ccccc2)c2ccc(Cl)cc21 | > 100 µM
* Cc1ccc2c(C(=O)Nc3ccccc3)c(SSc3c(C(=O)Nc4ccccc4)c4ccc(C)cc4n3C)n(C)c2c1 | > 100 µM
* CSc1c(C(=O)Nc2ccccc2)c2ccccc2n1C | > 100 µM

Prompt: For `Cn1c(SSCc2ccccc2)c(C(=O)Nc2ccccc2)c2ccccc21` , what is its reported IC50?
Response: > 100 µM
